System: Gmab anti-G4 antibody fragment (human (Garvan-2 scFv library))
Assay: BLI
Details: ka 7.5e4 M-1s-1, kd 2.7e-4 s-1; Buffer R: 20 mM HEPES pH 7.4-7.5, 20 mM NaOAc, 140 mM KOAc, 3 mM Mg(OAc)2, 0.1% Tween20; SPR at 20 C, BLI temperature not …
pKd: −log10 of the molar value.

- INPUT_SEQUENCE: "CGGGCGGGCGCGAGGGAGGGG [KIT2 G4]"
  pKd: 8.44

----------
Tested on: BG4 anti-G4 antibody
Assay: BLI
Details: ka 7.9e4 M-1s-1, kd 1.5e-4 s-1; Buffer R: 20 mM HEPES pH 7.4-7.5, 20 mM NaOAc, 140 mM KOAc, 3 mM Mg(OAc)2, 0.1% Tween20; SPR at 20 C, BLI temperature not …
pKd: −log10 of the molar value.
OBSERVATION_TYPE: pKd

- INPUT_SEQUENCE: "CGGGCGGGCGCGAGGGAGGGG [KIT2 G4]"
  OBSERVED_VALUE: 8.72

----------
Test system: Gmab anti-G4 antibody fragment (human (Garvan-2 scFv library))
Test: BLI
Conditions: all-HNA (1',5'-anhydrohexitol); Buffer R: 20 mM HEPES pH 7.4-7.5, 20 mM NaOAc, 140 mM KOAc, 3 mM Mg(OAc)2, 0.1% Tween20; SPR at 20 C, BLI temperature not …
pKd: −log10 of the molar value.

- INPUT_SEQUENCE: "GTGCTGTTCGTTTAAATGTGTGTCGTCGTTCGCTATCC [LYS-S8-19-core14 (HNA)]"
  pKd: 7.49

----------
System: BG4 anti-G4 antibody
Assay: BLI
Conditions: all-HNA (1',5'-anhydrohexitol); Buffer R: 20 mM HEPES pH 7.4-7.5, 20 mM NaOAc, 140 mM KOAc, 3 mM Mg(OAc)2, 0.1% Tween20; SPR at 20 C, BLI temperature not …
pKd: −log10 of the molar value.

- INPUT_SEQUENCE: "GTGCTGTTCGTTTAAATGTGTGTCGTCGTTCGCTATCC [LYS-S8-19-core14 (HNA)]"
  TEST_TARGET: "BG4 anti-G4 antibody"
  pKd: 8.28

----------
Target: hen egg-white lysozyme (HEL) (Gallus gallus) (UniProt P00698)
Sequence (P00698 19-147): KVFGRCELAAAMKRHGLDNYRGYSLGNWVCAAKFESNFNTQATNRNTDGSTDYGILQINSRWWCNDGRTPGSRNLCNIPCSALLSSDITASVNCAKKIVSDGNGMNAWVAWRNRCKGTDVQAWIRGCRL
Assay: BLI
Conditions: all-HNA; Buffer R: 20 mM HEPES pH 7.5, 20 mM NaOAc, 140 mM KOAc, 3 mM Mg(OAc)2, 0.1% Tween20; BLI temperature not stated; low values mean tight binding

- INPUT_SEQUENCE: "GTTCGTTTAAATGTGTGTCGTCGTTCGCTATCC [LYS-S8-19-core13 (HNA)]"
  DISPLAY_UNIT: "nM"
  Kd: 68.8
- INPUT_SEQUENCE: "GTTCGTTTAAATGTGTGTCGTCGTTCACTATCC [core13 G27A]"
  DISPLAY_UNIT: "nM"
  Kd: 9.28
- INPUT_SEQUENCE: "GTTCGTTTAAATGTGTGTCGTCGTTCCCTATCC [core13 G27C]"
  DISPLAY_UNIT: "nM"
  Kd: 116
- INPUT_SEQUENCE: "GTTCGTTTAAATATGTGTCGTCGTTCGCTATCC [core13 G13A]"
  DISPLAY_UNIT: "nM"
  Kd: 97.9
